MEASUREMENT TYPE: melting point

Cc1ccc(C)c(C(=O)NCCC23CC4CC(CC(C4)C2)C3)c1 :: 153 °C
COc1ccc(C(=O)Nc2cccnc2)cc1NC(=S)Nc1cccc(C(=O)O)c1 :: 191 to 192 °C
CCOC(=O)N1CCC(Nc2ccc(Cl)cc2N)CC1 :: 150 °C
O=C(O)CCc1cn(Cc2ccc(OCc3csc(-c4ccccn4)n3)cc2)cc1-c1ccccc1 :: 117 to 118 °C
COc1ccc(Oc2ccc(OCc3ccccc3)cc2)c([N+](=O)[O-])c1 :: 88 to 89.5 °C
NC(=O)c1cc(F)c(-n2ncc(Cl)c(Cl)c2=O)cc1F :: > 260 °C
CC#CCOc1ccc(SC(C(=O)O)c2cccc(Cl)c2)cc1 (stereo not given) :: 64 °C
O=Cc1cc(OCCCC(=O)O)ccc1[N+](=O)[O-] :: 112 to 114 °C

Any idea what melting point was measured for COc1ccc(C(O)CN)cc1OC (stereo not given) ?
80 to 81 °C

Quick one: melting point for `CSc1ccc2ncn(CCN3CCC(Nc4nc5ccccc5n4Cc4ccc(F)cc4)CC3)c(=O)c2c1` ?
101 °C

So what does the record say about melting point for `COC(=O)[C@H](Cc1ccccc1)NC(=S)Cc1cc(C)ccc1C` ?
63.5 to 64 °C

Given the entry `C[C@H]([C@](O)(Cn1cncn1)c1ccc(F)cc1F)S(=O)(=O)N1CCCC1` , report its measured melting point.
149 to 150 °C

###

Examples of compounds with documented melting point follow.

The examples below pair each entry with its known result.
COc1cc(OCc2ccccc2)c(C23CC4CC(CC(C4)C2)C3)cc1Br :: 124 to 126 °C
COc1cc(OC)c2c(=O)nc(-c3cc(C)c(O)c(C)c3)n(C)c2c1 :: 188 to 189 °C
N#Cc1ccc(N2CC(C(=O)N3CCN(CC(=O)OCc4ccccc4)CC3)OC2=O)cc1 (stereo not given) :: 131 to 132 °C
CCOC(=O)NN=Cc1cn(-c2ccccc2)nc1-c1ccc([N+](=O)[O-])o1 :: 200 to 201 °C

Kindly review the next compound as well.
Need melting point of `O=C(CN1CCC(Cc2ccc(F)cc2)CC1)Nc1ccc2c(c1)NC(=O)CO2` , thanks.
185 to 187 °C

###

MEASUREMENT TYPE: melting point

Data request, read-out melting point, for `COc1ccc(-c2nc3sccn3c2/C=C/C(=O)c2ccc3c(c2)OCO3)cc1`
189 to 191 °C

###

MEASUREMENT TYPE: melting point

Look over these answered cases.
COc1cc(/C=C/c2cc(/C=C/c3ccc4[nH]ccc4c3)n[nH]2)ccc1OCc1ccccn1 :: 96 to 101 °C
CCOC(=O)C1=C(C)NC(C)=C(C(=O)OCC)C1c1cc2cnccc2s1 :: 204 to 205 °C
O=C(Nc1ccc(Oc2ccccc2)cc1)N1CCN(c2ccnc3c(Cl)cccc23)CC1 :: 174 to 175 °C
Nc1cccc(-c2ccc(CCN(CC3CCCCC3)CC3CCCCC3)cc2)n1 :: 75 to 85 °C
NC1c2ccccc2CC12C(=O)Nc1ccccc12 (stereo not given) :: 195 to 197 °C

GET /values?readout=melting point&item= `Oc1c(C/C=C/c2ccc(OCc3ccccc3)c(OCc3ccccc3)c2)c(OCc2ccccc2)cc(OCc2ccccc2)c1Cc1ccccc1`
93 to 95 °C

What value of measured melting point is listed for `CCCCCCC(=O)c1ccc2c(c1)CC(=O)O2` ?
64 to 67 °C

Bench note: what melting point did `CC(=O)Oc1c(C)c(CCl)nc2ccccc12` show?
108 to 109 °C

src = a melting point compilation (Tetko et al.; mined from patent text by program, amines drawn as free bases though some values may be those of a salt)
